system: Vero E6 infected with SARS-CoV-2; assay: morphology score (similarity to uninfected cells); higher = more like uninfected cells; conditions: 24 h
Output Satisfied for morphology score not less than 0.3; output Not satisfied otherwise.

Before answering, review these 7 worked examples.
CN(C)c1cc(CNCC(C)(C)C)c(O)c2c1C[C@H]1C[C@H]3[C@H](N(C)C)C(O)=C(C(N)=O)C(=O)[C@@]3(O)C(O)=C1C2=O [omadacycline] (10 µM) | Not satisfied
COCC(=O)O[C@]1(CCN(C)CCCc2nc3ccccc3[nH]2)CCc2cc(F)ccc2[C@@H]1C(C)C [mibefradil] (10 µM) | Satisfied
N[C@@H]1CONC1=O [cycloserine-(D)] (10 µM) | Not satisfied
COc1cc(N2CCN(C)CC2)ccc1Nc1nccc(-c2cn(C)c3cnccc23)n1 (0.833333 µM) | Satisfied
CC(C)OC(=O)C1=CN(C(=O)c2ccc(F)c(F)c2)CC(C)(C)c2c1[nH]c1ccccc21 (10 µM) | Not satisfied
COc1ccc(NC(=O)c2ccc(-c3ccc(-c4noc(C)n4)cc3C)cc2)cc1OCCN(C)C (0.833333 µM) | Not satisfied
CCc1ccccc1OC[C@@H](O)CN[C@H]1CCCc2ccccc21 (10 µM) | Not satisfied

Say whether O=C(O)CCC(=O)Nc1ccc(S(=O)(=O)Nc2nccs2)cc1 [succinylsulfathiazole] (10 µM) shows morphology score of 0.3 or more.
Not satisfied

###

inhibition of SARS-CoV-2 cytopathic effect values, listed per item
test system: Vero E6 infected with SARS-CoV-2; test: inhibition of SARS-CoV-2 cytopathic effect; higher = more antiviral protection, active = above 15; conditions: 1 nM; 48 h
Write the number in % without appending the unit.

Cc1c(C2CCN(CCc3ccccc3)CC2)noc1-c1ccc(Cl)cc1 | -1.74

Turning to the following compound.
Any idea what inhibition of SARS-CoV-2 cytopathic effect was measured for `O=c1oc2cc(O)ccc2s1` ?
1.22

###

system: Vero E6 infected with SARS-CoV-2; test: morphology score (similarity to uninfected cells); higher = more like uninfected cells; settings: 24 h
Counter-ions that a name gives are not always drawn.
Class boundaries, taken from values of morphology score, are as follows: lower range = under -0.01, middle range = from -0.01 up to 0.1, upper range = 0.1 and over

A selection of reference data follows.
CCCn1c(=O)[nH]c(=O)c2nc[nH]c21 [enprofylline] (10 µM) | upper range
N=c1ccn2c(n1)O[C@H]1[C@H](O)[C@@H](CO)O[C@H]12 [Cyclocytidine HCl] (0.833333 µM) | lower range
N=C(N)NC(=N)NCCc1ccccc1 [phenformin] (10 µM) | middle range

# classify by morphology score band: CCCCOCCOc1nc(-c2ccc(C(=O)O)c(F)c2)sc1C (10 µM)
lower range

Where would NC(=O)c1nc(Nc2ccccc2)sc1NC(=O)C1CCCCC1 (0.833333 µM) land among the classes by reported morphology score?
middle range

Form: Item = C[C@]12C=CC(=O)C=C1CC[C@@H]1[C@@H]2[C@@H](O)C[C@@]2(C)[C@H]1CC[C@]2(O)C(=O)COP(=O)(O)O [prednisolone-sodium-phosphate] (10 µM) ; Class = ?
lower range

Which morphology score category applies to NCCC(Oc1ccc(C(F)(F)F)cc1)c1ccccc1 (configuration not stated) [norfluoxetine] (10 µM) here?
upper range

# bin label for O=C(O)CCCCN(CCc1ccccc1OCc1ccc(CCc2ccccc2)cc1)Cc1ccc(C(=O)O)cc1 [cinaciguat] (10 µM)
lower range

Which bin, given its morphology score, does C[C@@]1(O)[C@H](O)[C@@H](CO)O[C@H]1n1cnc2c(NC3CCCC3)nc(Cl)nc21 (10 µM) occupy?
middle range

###

system: Vero E6 infected with SARS-CoV-2; assay: inhibition of SARS-CoV-2 cytopathic effect; higher = more antiviral protection, active = above 15; settings: 1 nM; 48 h
measurement.kind: inhibition of SARS-CoV-2 cytopathic effect (%)
Provide the reading as a plain figure in %.

What value of inhibition of SARS-CoV-2 cytopathic effect has been recorded for this entry: `Cc1cccc(-c2[nH]c(C(C)(C)C)nc2-c2ccc3c(c2)OCO3)n1`
-0.26

Which inhibition of SARS-CoV-2 cytopathic effect is listed for `NC(=S)N/N=C/c1coc2ccccc2c1=O.[Cl][Cu][Cl]` ?
0.84

Consider the compound shown here: `NC(=O)Nc1sc(-c2ccc(F)cc2)cc1C(N)=O` What is its recorded inhibition of SARS-CoV-2 cytopathic effect?
1.14

Name the reported inhibition of SARS-CoV-2 cytopathic effect value associated with the compound `Cn1nnc(-c2ccc(-c3ccc(N4C[C@H](CO)OC4=O)cc3F)cn2)n1`
-0.87

Given `C/C=C1/[C@H](O[C@@H]2O[C@H](CO)[C@@H](O)[C@H](O)[C@H]2O)OC=C(C(=O)OC)[C@H]1CC(=O)OCCc1ccc(O)c(O)c1` , state its recorded inhibition of SARS-CoV-2 cytopathic effect.
0.9

Entry under review: `CC(=O)C(=Cc1cc(O)c(O)c([N+](=O)[O-])c1)C(C)=O` . Reported inhibition of SARS-CoV-2 cytopathic effect?
-1.48

Given the entry NS(=O)(=O)c1cc2c(cc1Cl)NC(CC1CCCC1)NS2(=O)=O (centres undefined) [cyclopenthiazide] , report its measured inhibition of SARS-CoV-2 cytopathic effect.
1.26

What value of inhibition of SARS-CoV-2 cytopathic effect has been reported for the following compound? `COc1ccc(NS(=O)(=O)c2ccc(N)cc2)nn1`
3.44

Look at this compound and give its reported inhibition of SARS-CoV-2 cytopathic effect. `CC1(C)CN(C(=O)c2ccc(-c3cccc4nc(NC(=O)C5CC5)nn34)cc2)C1`
0.35

###

Below: a set of entries, each annotated with reported inhibition of SARS-CoV-2 cytopathic effect.
test system: Vero E6 infected with SARS-CoV-2; assay: inhibition of SARS-CoV-2 cytopathic effect; higher = more antiviral protection, active = above 15; settings: 1 nM; 48 h
Numbers only; they are read as %.

CC(C)c1ccc(C(=O)c2cccs2)c(SCCCCCCCCN(C)C)n1 | -1.33
O=C(O)CCc1ccc(NCc2cccc(Oc3ccccc3)c2)cc1 | 1.33
CC(=O)Nc1ccc(OC[C@](C)(O)C(=O)Nc2ccc([N+](=O)[O-])c(C(F)(F)F)c2)cc1 | -0.84
N=C(NCCCCCCNC(=N)NC(=N)Nc1ccc(Cl)cc1)NC(=N)Nc1ccc(Cl)cc1 | 3.47
COc1cc2ncnc(Sc3nnc(C)s3)c2cc1OC | -1.42
C=CCSCC1Nc2cc(Cl)c(S(N)(=O)=O)cc2S(=O)(=O)N1 (stereo unspecified) [althiazide] | 0.54
Clc1ccccc1C(c1ccccc1)(c1ccccc1)n1cccn1 | 2.55
CCCCN1[C@@H]2CC[C@H]1C[C@@H](OC(c1ccc(F)cc1)c1ccc(F)cc1)C2 | -4.04
C[C@]12CC[C@@H]3c4ccc(O)cc4CC[C@H]3[C@@H]1C[C@@H](O)[C@@H]2O | 2.04
C=CCc1ccc(O)c(-c2cc(CC=C)ccc2O)c1 | -1.26

I am curious: what inhibition of SARS-CoV-2 cytopathic effect value has been reported for Nc1ccc(S(=O)(=O)NC(=O)c2ccccc2)cc1 [sulfabenzamide] ?
-2.34

Return reported inhibition of SARS-CoV-2 cytopathic effect; argument: `CCCCOc1c(C(=O)c2c(F)cc(C)cc2F)c[nH]c2nncc1-2`
0.56

Endpoint output: inhibition of SARS-CoV-2 cytopathic effect of `CC[C@H](C)[C@@H]1NC(=O)[C@H](Cc2ccc(O)cc2)NC(=O)[C@@H](N)CSSC[C@@H](C(=O)N2CCC[C@H]2C(=O)N[C@@H](CC(C)C)C(=O)NCC(N)=O)NC(=O)[C@H](CC(N)=O)NC(=O)[C@H](CCC(N)=O)NC1=O` . Value?
5.14

Recorded inhibition of SARS-CoV-2 cytopathic effect of `Cn1cc(-c2ccc3nnc(Sc4ccc5ncccc5c4)n3n2)cn1` , please.
0.46

What measured inhibition of SARS-CoV-2 cytopathic effect goes with `C=CCNC1=C2C[C@@H](C)C[C@H](OC)[C@H](O)[C@@H](C)/C=C(\C)[C@H](OC(N)=O)[C@@H](OC)/C=C\C=C(/C)C(=O)NC(=CC1=O)C2=O` ?
-1.35

Dear colleague, I am looking for the recorded inhibition of SARS-CoV-2 cytopathic effect of the following compound: `O=C1c2c(O)ccc(O)c2C(=O)c2c(NCCNCCO)ccc(NCCNCCO)c21`
0.83

Any idea what inhibition of SARS-CoV-2 cytopathic effect was measured for `Cc1cccc(Nc2nc(-c3ccncc3)cs2)c1` ?
0.53

GET /values?readout=inhibition of SARS-CoV-2 cytopathic effect&item= `COc1cc2c(=O)c(-c3ccc(O)cc3)coc2cc1O`
1.2

Fill blank: measured inhibition of SARS-CoV-2 cytopathic effect of the compound `OCc1cncc(F)c1` is ____.
-1.88

Values from the supplement of paper PMC13380429
